Assay: Compound tested in vitro for inhibition of Angiotensin I converting enzyme in rat
# key: entry, value: pIC50
Remember, pIC50 is on a log scale: it is -log10 of the molar concentration.

>>> data_value("CCOC(=O)C(CCc1ccccc1)N[C@@H](C)C(=O)N1CC2(C[C@H]1C(=O)O)SCCS2 (some centres not stated)")
7.04

--- query ---
pIC50 measured on NCCCC[C@H](N[C@@H](CCc1ccccc1)C(=O)O)C(=O)N1CCC[C@H]1C(=O)O [LISINOPRIL ANHYDROUS] = 8.92

----------
Target: Angiotensin-converting enzyme (Rattus norvegicus)
Assay: Compound tested in vivo for inhibition of Angiotensin I converting enzyme in rat
Assay type: organism-based
Each entry below lists one item and its recorded ID50 value.
// note: answer is a bare numeric in mg/kg

Guide cases for ID50, answers given:
>>> data_value("CCOC(=O)[C@H](CCc1ccccc1)NCC(=O)N1CC2(C[C@H]1C(=O)O)SCCS2")
0.221
>>> data_value("CCOC(=O)[C@H](CCc1ccccc1)N[C@@H](CCCCN)C(=O)N1CC2(C[C@H]1C(=O)O)SCCS2")
0.01
>>> data_value("NCCCC[C@H](N[C@@H](CCc1ccccc1)C(=O)O)C(=O)N1CC2(C[C@H]1C(=O)O)SCCS2")
0.01

Now look at this entry.
Record `C[C@H](N[C@@H](CCc1ccccc1)C(=O)O)C(=O)N1CCC[C@H]1C(=O)O` . Reported ID50: 0.015
